# EXPERIMENT NOTES: resazurin metabolic signal in HepG2 cells – cell-based, resazurin fluorescence, 24 h, PK04 Diversity Set, profiling panel (AID 1172); further: test concentration not given here
# MEASUREMENT CONTEXT: HepG2 viability, higher = more signal
Give measured z-score for each item. Keep answers brief.
Could you keep your reply to the number by itself?

Please indicate z-score recorded for `[N-]=[N+]=Nc1ccccc1C[C@]1(C(=O)N2CCCCC2)COC(c2ccc(OCCCO)cc2)=N1` 0.508

Please indicate z-score recorded for `COc1ccc(C#Cc2ccc3c(c2)[C@]2(C(=O)N3)[C@H](c3ccc(O)cc3)N3[C@H](c4ccccc4)[C@H](c4ccccc4)OC(=O)[C@H]3[C@@H]2C(=O)N2CCc3cc(OC)c(OC)cc3C2)cc1` 0.449

Please indicate z-score recorded for `COCCOC(=O)N1C(=O)[C@@]2(c3cc(C#Cc4ccc(OC)cc4)ccc31)[C@H](c1ccc(O)cc1)N1[C@H](c3ccccc3)[C@H](c3ccccc3)OC(=O)[C@H]1[C@@H]2C(=O)Nc1nc2ccccc2s1` -0.719
